Test system: RMI core complex (RMI1/RMI2) binding to FANCM MM2 peptide, human
Experimental Details: disruptors of RMI1/RMI2 association with MM2 peptide – biochemical, fluorescence polarization, human, primary screen (AID 1159607)
Assay Context: RMI core complex with F-MM2 peptide, at 33 µM
Screen size: about 70,000 compounds; about 400 (0.57%) were called active. Rule as the data show it: active = FP signal below about 40; inactive = the rest. The sample as a whole holds a higher share of actives than the screen did.
Bench note: report the call from active, inactive

1. Cc1ccc2nc(N(CCN(C)C)C(=O)c3ccc(S(=O)(=O)N4CCCCCC4)cc3)sc2c1; inactive
2. CC1(C)Cc2cccc(OCc3ccc(C(=O)NCCN4CCOCC4)cc3)c2O1; inactive
3. CCOC(=O)N1CCN(C(=O)COc2coc(CN3CCc4ccccc43)cc2=O)CC1; inactive
4. COc1cc(-c2noc(-c3cc(-c4ccccc4)n[nH]3)n2)cc(OC)c1OC; inactive
5. O=C(Nc1ccccc1-c1nc2ccccc2s1)c1ccc(Cl)s1; inactive

Hi, do you know how CCn1cc(C(=O)N2CCN(Cc3cc(C)ccc3C)CC2)c2nn(-c3ccccc3)c(=O)c-2c1 came out in this test?
inactive

Hi, do you know how CCOC(=O)c1nn(-c2ccccc2C)c(=O)cc1NCCC(c1ccccc1)c1ccccc1 came out in this test?
inactive

Hi, do you know how CC(C)c1c(O)ccc2c1CCC1[C@@](C)(CO)CCC[C@]21C (stereo partly specified) came out in this test?
inactive

Hi, do you know how COc1ccc(-c2noc(Cn3cnc4c(nnn4Cc4cccc(F)c4)c3=O)n2)cc1 came out in this test?
inactive

Hi, do you know how COc1ccc(OC)c(Nc2nc(CC(=O)Nc3nc4ccccc4s3)cs2)c1 came out in this test?
inactive

Hi, do you know how CSc1cccc(NC(=O)C(=O)NCCc2ccccc2)c1 came out in this test?
inactive

Hi, do you know how O=c1c2scc(-c3ccccc3)c2ncn1Cc1ccccc1 came out in this test?
inactive

###

Test system: RMI core complex (RMI1/RMI2) binding to FANCM MM2 peptide, human
Experimental Details: disruptors of RMI1/RMI2 association with MM2 peptide – biochemical, fluorescence polarization, human, primary screen (AID 1159607)
Assay Context: RMI core complex with F-MM2 peptide, at 33 µM, hits give low values
Among all 70,000 compounds or so, about 400 (0.57%) were called active. The sample holds actives, similar compounds and a random draw of the others, so the mix is not that of the screen.
Rule: FP signal (polarization) below 60 gives Condition met. Equal to or above 60 gives Condition not met.

Please review the following examples before continuing.
1) CCOc1ccc(S(=O)(=O)Nc2ccc3c(c2)CN(C(=O)C2CC2)CC3)cc1F; Condition not met
2) O=C(Cn1c2c(c(=O)n(C3CCCCC3)c1=O)CCC2)Nc1ccc2c(c1)OCCO2; Condition met

I'd appreciate it if you could check whether C=CCn1c(SCC(=O)Nc2nsc(-c3ccccc3)n2)nc2scc(-c3ccco3)c2c1=O has FP signal (polarization) smaller than 60.
Condition not met

I'd appreciate it if you could check whether COC(=O)c1c(N2C(=O)C3ON(c4ccc(Cl)cc4)C(c4ccco4)C3C2=O)sc(C)c1C (centres undefined) has FP signal (polarization) smaller than 60.
Condition met

I'd appreciate it if you could check whether COc1ccc2oc(-c3csc(NC(=O)C4COc5ccccc5O4)n3)cc2c1 (centres undefined) has FP signal (polarization) smaller than 60.
Condition not met

I'd appreciate it if you could check whether COc1ccccc1CCNC(=O)C(=O)NC1CCCCCC1 has FP signal (polarization) smaller than 60.
Condition met

I'd appreciate it if you could check whether CSc1cccc(NC(=O)C(=O)NCCN2CCN(c3ccccc3F)CC2)c1 has FP signal (polarization) smaller than 60.
Condition not met

I'd appreciate it if you could check whether COc1ccc(-c2nnc(NC(=O)/C=C/c3ccccc3Cl)o2)c(OC)c1 has FP signal (polarization) smaller than 60.
Condition met

I'd appreciate it if you could check whether Cc1ccc(-c2nc(N3CCOCC3)sc2-c2ccc([N+](=O)[O-])cc2)cc1 has FP signal (polarization) smaller than 60.
Condition not met

I'd appreciate it if you could check whether CCCOc1ccc(S(=O)(=O)N2CCN(c3ccc(F)cc3)CC2)cc1C has FP signal (polarization) smaller than 60.
Condition not met

I'd appreciate it if you could check whether O=C(CSc1nc2ccc(Br)cc2c2nc3ccccc3n12)NCC1CCCO1 (centres undefined) has FP signal (polarization) smaller than 60.
Condition met

I'd appreciate it if you could check whether COc1ccc(S(=O)(=O)Nc2ccccc2C(=O)O)cc1C has FP signal (polarization) smaller than 60.
Condition not met

I'd appreciate it if you could check whether CC(C)Oc1ccc(C(=O)NCC(c2ccsc2)N2CCCCCC2)cc1 (centres undefined) has FP signal (polarization) smaller than 60.
Condition not met

I'd appreciate it if you could check whether Cc1cc(-c2nnc(NC(=O)/C=C/c3ccccc3Cl)o2)nn1C has FP signal (polarization) smaller than 60.
Condition not met

###

Test system: RMI core complex (RMI1/RMI2) binding to FANCM MM2 peptide, human
Experimental Details: disruptors of RMI1/RMI2 association with MM2 peptide – biochemical, fluorescence polarization, human, primary screen (AID 1159607)
Assay Context: RMI core complex with F-MM2 peptide, at 33 µM
The campaign covered roughly 70,000 compounds. About 400 (0.57%) were called active. No stated cut-off is given here; in the data, active means FP signal below about 40; inactive means the rest. Many of the other results were omitted from the sample, so actives are more common in it than they were.
Bench note: report the call from YES for active, NO for inactive

Hi, do you know how O=C(Cc1csc(Nc2ccc(F)cc2)n1)NCc1ccccn1 came out in this test?
YES

###

The entries below are paired with their reported FP signal (polarization).
System: RMI core complex (RMI1/RMI2) binding to FANCM MM2 peptide, human
Experimental Details: disruptors of RMI1/RMI2 association with MM2 peptide – biochemical, fluorescence polarization, human, primary screen (AID 1159607)
Assay Context: RMI core complex with F-MM2 peptide, at 33 µM, hits give low values
The whole screen tested about 70,000 compounds, of which about 400 (0.57%) were called active. This is one part of a sample in which actives are shown more often than they occur.
Keep it simple and answer with nothing but the number.

Example cases with answers are listed next.
1) CSc1nc2ccc(NC(=O)c3ccc(Oc4ccc(C(=O)Nc5ccc6nc(SC)sc6c5)cc4)cc3)cc2s1; 63
2) O=C(Nc1cc(F)ccc1F)N1CCN(c2ccc(-c3ccc4c(c3)OCO4)nn2)CC1; 123
3) Cc1ccc(NC(=O)C(=O)Nc2cc(F)ccc2F)cc1N1CCCC1=O; 54

Report FP signal (polarization), nothing else, for this compound: Cc1ccccc1OCCCn1c(C2CC(=O)N(C(C)(C)C)C2)nc2ccccc21 (stereo not drawn)
69

Report FP signal (polarization), nothing else, for this compound: Nc1cc(-c2ccccc2)no1
63

Report FP signal (polarization), nothing else, for this compound: CN1C(=O)C(C)(C)COc2ccc(NC(=O)c3ccc(Br)cc3)cc21
68

Report FP signal (polarization), nothing else, for this compound: COc1ccc(-c2csc3c(=O)n(Cc4ccccc4Cl)cnc23)cc1
63

Report FP signal (polarization), nothing else, for this compound: CCOC(=O)N1CCc2c(sc(NC(=O)CSc3ccccc3)c2C(N)=O)C1
67
